test system: Actinobacillus pleuropneumoniae CVCC262; assay: in vitro susceptibility, MIC by mini broth dilution; assay type: cell-based; conditions: strain CVCC262
Decision: MIC values, Actinobacillus pleuropneumoniae CVCC262 beneath 1 ug/mi gives Yes; MIC values, Actinobacillus pleuropneumoniae CVCC262 meeting or exceeding 1 ug/mi gives No.

Record excerpt, results attached:
CC[C@H]1OC(=O)[C@H](C)[C@@H](O[C@H]2C[C@@](C)(OC)[C@](O)(CN(C)C)[C@H](C)O2)[C@H](C)[C@@H](O[C@@H]2O[C@H](C)C[C@H](N(C)C)[C@H]2O)[C@](C)(O)C[C@@H](C)NC[C@H](C)[C@@H](O)[C@]1(C)O; Yes
CCCN1CC(C)C(O)C(C)(O)C(CC)OC(=O)C(C)C(OC2CC(C)(OC)C(O)(CNNc3ccc(F)cc3)C(C)O2)C(C)C(OC2OC(C)CC(N(C)C)C2O)C(C)(O)CC1C (stereo not drawn); Yes
CC[C@H]1OC(=O)[C@H](C)[C@@H](O[C@H]2C[C@@](C)(OC)[C@](O)(CNOCc3ccccc3)[C@H](C)O2)[C@H](C)[C@@H](O[C@@H]2O[C@H](C)C[C@H](N(C)C)[C@H]2O)[C@](C)(O)C[C@@H](C)NC[C@H](C)[C@@H](O)[C@]1(C)O; No

For CCC1OC(=O)C(C)C(OC2CC(C)(OC)C(O)(CNCNCc3ccc(C=O)cc3)C(C)O2)C(C)C(OC2OC(C)CC(N(C)C)C2O)C(C)(O)CC(C)NCC(C)C(O)C1(C)O (stereo not drawn) , is the recorded MIC values, Actinobacillus pleuropneumoniae CVCC262 below the cut-off of 1 ug/mi? Yes

For "CCCN1C[C@H](C)[C@@H](O)[C@](C)(O)[C@@H](CC)OC(=O)[C@H](C)[C@@H](O[C@H]2C[C@@](C)(OC)[C@](O)(CNCC3CCNCC3)[C@H](C)O2)[C@H](C)[C@@H](O[C@@H]2O[C@H](C)C[C@H](N(C)C)[C@H]2O)[C@](C)(O)C[C@H]1C" , is the recorded MIC values, Actinobacillus pleuropneumoniae CVCC262 below the cut-off of 1 ug/mi? No

For CCCC(C)NC[C@]1(O)[C@H](C)O[C@@H](O[C@H]2[C@H](C)[C@@H](O[C@@H]3O[C@H](C)C[C@H](N(C)C)[C@H]3O)[C@](C)(O)C[C@@H](C)NC[C@H](C)[C@@H](O)[C@](C)(O)[C@@H](CC)OC(=O)[C@@H]2C)C[C@@]1(C)OC (stereo partly drawn) , is the recorded MIC values, Actinobacillus pleuropneumoniae CVCC262 below the cut-off of 1 ug/mi? Yes

For "CC[C@H]1OC(=O)[C@H](C)[C@@H](O[C@H]2C[C@@](C)(OC)[C@](O)(CNCCN3CCCC3)[C@H](C)O2)[C@H](C)[C@@H](O[C@@H]2O[C@H](C)C[C@H](N(C)C)[C@H]2O)[C@](C)(O)C[C@@H](C)NC[C@H](C)[C@@H](O)[C@]1(C)O" , is the recorded MIC values, Actinobacillus pleuropneumoniae CVCC262 below the cut-off of 1 ug/mi? Yes

For "CC[C@H]1OC(=O)[C@H](C)[C@@H](O[C@H]2C[C@@](C)(OC)[C@](O)(CNc3ccc(Cl)nn3)[C@H](C)O2)[C@H](C)[C@@H](O[C@@H]2O[C@H](C)C[C@H](N(C)C)[C@H]2O)[C@](C)(O)C[C@@H](C)NC[C@H](C)[C@@H](O)[C@]1(C)O" , is the recorded MIC values, Actinobacillus pleuropneumoniae CVCC262 below the cut-off of 1 ug/mi? Yes
